- test_method_notes: gradient 5% acetonitrile 3 min, to 50% in 2 min, to 85% in 15 min, held 3 min, 100 µL/min
- condition_label: column: Zorbax Extend-C18 2.1 x 50 mm; eluents: water / acetonitrile, 0.1% formic acid
Below, each entry is listed with its recorded RP-LC retention time.

[
  {
    "compound": "COc1cc(NC(=O)NC2COc3ccccc3C2)cc(OC)c1OC (stereo not given)",
    "unit_tag": "s",
    "RP-LC retention time": 773
  },
  {
    "compound": "O=C(NCc1cccnc1)C1CCCN(S(=O)(=O)c2cc(-c3noc(C4CCC4)n3)cs2)C1 (stereo not given)",
    "unit_tag": "s",
    "RP-LC retention time": 825
  },
  {
    "compound": "COc1ccc(CNC(=O)C2(c3ccc(NS(C)(=O)=O)cc3)CCCCC2)cc1",
    "unit_tag": "s",
    "RP-LC retention time": 859
  },
  {
    "compound": "CCn1ccc(C(=O)N2CCc3cc(-c4csc(C5CC5)n4)ccc32)n1",
    "unit_tag": "s",
    "RP-LC retention time": 1050
  },
  {
    "compound": "CCCN(CCC)C(=O)C1CCN(S(=O)(=O)c2ccc3c(c2)CCCC(=O)N3)CC1",
    "unit_tag": "s",
    "RP-LC retention time": 694
  },
  {
    "compound": "O=C(Cc1ccc(F)cc1)N1CCN(C(=O)c2cc(-c3cccnc3)n[nH]2)CC1",
    "unit_tag": "s",
    "RP-LC retention time": 606
  },
  {
    "compound": "COCCOC1CCC12CCN(C(=O)c1conc1C)CC2 (stereo not given)",
    "unit_tag": "s",
    "RP-LC retention time": 706
  },
  {
    "compound": "COc1ccc(N2CCN(C(=O)Cn3ccc4c(c(C)nn4-c4ccccc4)c3=O)CC2)cc1",
    "unit_tag": "s",
    "RP-LC retention time": 736
  },
  {
    "compound": "CCc1cccc(NC(=O)c2c(C)oc3c2C2=NC(CC)CN2C=N3)c1 (stereo not given)",
    "unit_tag": "s",
    "RP-LC retention time": 698
  },
  {
    "compound": "CNC(=O)[C@@H]1C[C@H](Oc2cccnc2)CN1C(=O)C1CC=CC1",
    "unit_tag": "s",
    "RP-LC retention time": 554
  },
  {
    "compound": "CCCNc1nc(-c2ccc(C3CCCCC3)cc2)cs1",
    "unit_tag": "s",
    "RP-LC retention time": 1170
  },
  {
    "compound": "Cc1ccccc1-c1nnc(COc2ccc(NC(=O)c3ccoc3)cc2)o1",
    "unit_tag": "s",
    "RP-LC retention time": 872
  },
  {
    "compound": "O=C(NC1CCCCC1)c1cc2c(s1)CCN(C(=O)c1ccc(F)cc1)C2",
    "unit_tag": "s",
    "RP-LC retention time": 893
  },
  {
    "compound": "COc1ccc(Cn2nnc3cc(C(=O)NCc4ccco4)ccc32)cc1",
    "unit_tag": "s",
    "RP-LC retention time": 818
  },
  {
    "compound": "CCCCn1cc(S(=O)(=O)NCc2cccc(C)c2)c2cccnc21",
    "unit_tag": "s",
    "RP-LC retention time": 1000
  },
  {
    "compound": "CC(C)(Cc1c[nH]c2ccccc12)NCC(O)COc1ccccc1C#N (stereo not given)",
    "unit_tag": "s",
    "RP-LC retention time": 757
  },
  {
    "compound": "CCOC(=O)c1c(C)c(CCC(=O)NCCN2CCN(C)CC2)n(C)c1C",
    "unit_tag": "s",
    "RP-LC retention time": 596
  },
  {
    "compound": "CCn1cc2c(n1)c(=O)n(Cc1ccccc1)c(=O)n2CC(=O)NCc1ccccc1",
    "unit_tag": "s",
    "RP-LC retention time": 819
  },
  {
    "compound": "CSCc1csc(NC(=O)COc2ccc(Cl)cc2)n1",
    "unit_tag": "s",
    "RP-LC retention time": 883
  },
  {
    "compound": "O=C(NC1CCCCC1)N(Cc1ccccn1)Cc1ccco1",
    "unit_tag": "s",
    "RP-LC retention time": 635
  }
]
